// values below are reported Kd
Molecular target: T1, MBP-fused recombinant human PCNA (human, UniProt P12004 1-261)
T1 construct: proliferating cell nuclear antigen, human; vector pMAL-c2x; Analyte of the SPR experiments; also called MBP-PCNA; hPCNA; source: E. coli Rosetta 2 (DE3), purified (amylose resin)
T1 sequence (P12004 whole entry, the tested form may be a part): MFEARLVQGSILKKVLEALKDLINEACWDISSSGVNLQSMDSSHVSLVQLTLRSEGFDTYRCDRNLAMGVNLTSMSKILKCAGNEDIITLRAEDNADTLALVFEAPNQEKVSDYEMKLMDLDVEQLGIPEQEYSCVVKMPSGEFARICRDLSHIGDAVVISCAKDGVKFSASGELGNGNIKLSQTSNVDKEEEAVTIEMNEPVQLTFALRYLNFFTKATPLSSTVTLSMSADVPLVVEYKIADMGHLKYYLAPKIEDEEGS
Experiment: SPR; ProteOn XPR36, GLC chip; peptides immobilised by EDC/S-NHS amine coupling; MBP-PCNA 0-250 nM as analyte at 25 µl/min; equilibrium analysis model
Conditions: both partners purified
Ends that are not written are not given here.
I only need the number, in nM, no unit after it.

* RRRRRRRRRRRIKKKRKWEASALVCIRLVTSSKPRTVA (not fully specified (residue 38, N-terminus); printed as RRRRRRRRRRR-I-KKKRK-W-EASALVCIRLVTSSKPRTVA, cell-penetrating moiety: R11, I, NLS stretch KKKRK, W; NKp44 (NCR2), amino acids 57-76 (pep8), with valine at 75 (SNP rs9471577); also called CPP-pep8; source: synthetic peptide (GL Biochem, purity > 95%)) [R11-NLS-pep8] | 87

Consider the additional binder presented here.
Q: Quick one: Kd of EASALVCIRLVTSSKPRTVA (NKp44 (NCR2), amino acids 57-76, with the natural SNP variant (rs9471577) valine at 75; also called NKp44-pep8; source: synthetic peptide) [NKp44-derived pep8 (immobilised for SPR)] ?
Ans: 490
